- Tested on: U251 CNS
- MEASUREMENT_PROTOCOL: NCI-60 one-dose screen, 48 h (100 = growth as untreated, 0 = no growth, -100 = all killed)
- EXPERIMENTAL_SETUP: 10 µM unless noted
- Procedure: Growth inhibition of the U251 human tumor cell line is measured as a screen for anti-cancer activity. Cells are grown in 96 well plates and exposed to the test compound for 48 hours. Compounds are tested at a single concentration, which is 10^-5 M for most compounds. The reported endpoint is percent growth (GI% or GIPRCNT), where numbers from 0 - 100% represent growth inhibition, and numbers from -100% - 0 represent cell death. For example, a value of 40 represents 60% growth inhibition. […]
About 83,000 compounds went through this panel and 20% of them were active in at least one assay; those are over-represented in the sample as a whole.
# growth >= 90% gives Y, anything below gives N

INSERT INTO results (line_notation, category) VALUES
  ('COc1ccc2c(c1)c(-c1nc(-c3c[nH]c4ncccc34)cs1)cn2CCO', 'N'),
  ('Cc1ccc2c(-c3nnc(N)s3)cc(=O)oc2c1C', 'Y'),
  ('Clc1ccc(-c2cc(-c3ccccc3)nc(NCCNc3ccnc4cc(Cl)ccc34)n2)cc1', 'N'),
  ('CNC(=O)c1cc(Oc2cccc3nc(NC(=O)Nc4cc(C(F)(F)F)ccc4Cl)ccc23)ccn1', 'N'),
  ('Clc1c(Cl)[n+](Cc2ccc3ccccc3c2)cn1Cc1ccc2ccccc2c1', 'N'),
  ('O=C(O)/C=C/C(=O)Nc1cccc(Cn2nnc3cc(Cl)c(Cl)cc32)c1', 'Y'),
  ('C=CC(=O)Nc1ccc(Oc2nccc(Nc3nnc(-c4ccc(C)cc4)s3)n2)cc1', 'N'),
  ('CC(=O)c1sc2sc(C(C)=O)c(C)c2c1C', 'Y'),
  ('CCS/C(Nc1ccccc1)=C(\C#N)C(=O)Nc1ccc(OC)cc1', 'N'),
  ('COc1cccc(-c2cc(-c3cccc(Cl)c3)c(C#N)c(=O)[nH]2)c1', 'N'),
  ('CCOc1ccc(-n2nc(C(=O)NCc3ccccc3OC)nc2-c2cc(OC)c(OC)c(OC)c2)cc1', 'N'),
  ('Nc1[nH]c(=S)nc2oc(-c3ccccc3)c(-c3ccccc3)c12', 'Y'),
  ('CC1CCN(C(=S)SCC(=O)NC(=O)c2ccccc2)CC1', 'Y'),
  ('CCNc1ccc(-c2nc3ccccc3n3cccc23)cc1', 'N'),
  ('CCOC(=O)c1c(C)nc2c(c1N)/C(=C/c1ccc(OC)cc1)C(=O)N2Cc1ccccc1', 'N'),
  ('O=c1ccc(=O)n(-c2nc(-c3ccc([N+](=O)[O-])cc3)cs2)[nH]1', 'Y'),
  ('Cc1ccc(N2C(=O)CCC2=O)cc1', 'Y'),
  ('COc1ccc2c(c1)c(/C(O)=C1\COC(=O)C1=O)cn2Cc1ccc(F)cc1', 'Y'),
  ('COc1ccc2cc(-c3ccnc4c(N=Nc5ccc(Cl)cc5)c(N)nn34)ccc2c1', 'Y'),
  ('O=C1NC(=O)/C(=C/c2c(-c3ccccc3)nc3sc(COc4ccccc4)nn23)S1', 'Y');

----------
- System: A498 renal
- MEASUREMENT_PROTOCOL: NCI-60 one-dose screen, 48 h
- EXPERIMENTAL_SETUP: 10 µM unless noted
Compounds without any hit were thinned out: in the full panel of roughly 83,000, 20% have a hit. Activity calls are given as the source filed them. How the source made its calls: active means growth percent below 10; inactive means the rest.
Classes used: Y (active), N (inactive)

INSERT INTO assay_data (molecule, measured_target, category) VALUES
  ('Cc1ccc2nc(/C(C#N)=C(/CCCO)NC(Cc3ccccc3)C(=O)OCc3ccccc3)[nH]c(=O)c2c1 (stereo not given)', 'A498 renal', 'N'),
  ('O=C(Nc1ccccc1O)c1ccc(CNC(=O)c2ccsc2Nc2ccnc(C(F)(F)F)c2)cc1', 'A498 renal', 'Y'),
  ('COc1ccc(C(=O)N2c3ccccc3Sc3ccccc32)c(C(F)(F)F)c1', 'A498 renal', 'Y'),
  ('N#Cc1nc(-c2ccccc2)oc1S(=O)(=O)N1CCN(c2ccc(F)cc2)CC1', 'A498 renal', 'N'),
  ('O=C(/C=C/C12c3ccccc3C(c3ccccc31)C1C(=O)NC(=O)C12)c1ccc(Br)cc1 (stereo not given)', 'A498 renal', 'N');

Ref: PubChem BioAssay (NCI)
